Test system: Salmonella enterica serovar Typhimurium SL1344
Settings: LPM pH 5.8
Where a name gives a salt, the structure may show the parent alone.
reported.endpoint: MIC

Some molecules with recorded MIC:
>  <molecule>
C/C(=C\C(=O)OCCCCCCCCC(=O)O)C[C@@H]1OC[C@H](C[C@@H]2O[C@H]2[C@@H](C)[C@H](C)O)[C@@H](O)[C@H]1O

>  <MIC>
≤ 0.78 µM

$$$$
>  <molecule>
CNC[C@H](O)c1cccc(O)c1 [PHENYLEPHRINE HYDROCHLORIDE]

>  <MIC>
> 50 µM

$$$$
>  <molecule>
N[C@@H](Cc1cc(I)c(Oc2ccc(O)c(I)c2)c(I)c1)C(=O)O

>  <MIC>
> 50 µM

$$$$

For every item in the list below, what is its measured MIC?
1. CN(C)C(=O)Oc1ccc[n+](C)c1 [PYRIDOSTIGMINE BROMIDE]
2. Cc1cc(C2CCCCC2)n(O)c(=O)c1
3. CO/N=C(\C(=O)N[C@@H]1C(=O)N2C(C(=O)O)=C(CSc3nc(=O)c(O)nn3C)CS[C@H]12)c1csc(N)n1 [CEFTRIAXONE SODIUM TRIHYDRATE]
4. COc1c(N2CCNC(C)C2)c(F)cc2c(=O)c(C(=O)O)cn(C3CC3)c12 (stereo unspecified)
5. CN1CCN(c2cc3c(cc2F)c(=O)c(C(=O)O)cn3-c2ccc(F)cc2)CC1 [DIFLOXACIN HYDROCHLORIDE]

Data returned:
1: > 50 µM; 2: ≤ 0.78 µM; 3: ≤ 0.78 µM; 4: ≤ 0.78 µM; 5: ≤ 0.78 µM
